- subject of test: Set9 (His-Set9, His-Set7/9) (Homo sapiens, UniProt Q8WTS6)
- Sequence (Q8WTS6 whole entry, species assumed): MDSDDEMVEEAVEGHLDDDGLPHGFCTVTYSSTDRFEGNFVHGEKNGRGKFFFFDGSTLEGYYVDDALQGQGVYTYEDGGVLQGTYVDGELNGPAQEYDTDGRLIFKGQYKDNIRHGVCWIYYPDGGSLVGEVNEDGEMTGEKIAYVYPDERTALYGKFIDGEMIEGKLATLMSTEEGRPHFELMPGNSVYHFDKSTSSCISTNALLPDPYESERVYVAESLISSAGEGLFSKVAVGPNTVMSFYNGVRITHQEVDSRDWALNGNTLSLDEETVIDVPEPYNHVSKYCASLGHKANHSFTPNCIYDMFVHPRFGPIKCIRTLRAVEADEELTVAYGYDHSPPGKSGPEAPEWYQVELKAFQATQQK
- protocol text: Assay for measuring histone methyltransferase activity using peptidyl MCA, inhibitor evaluation with Set9
- Type: biochemical
- test conditions: Example 8; Ac-p53 (369-372)-MCA; AMC fluorescence λex 390 nm/λem 460 nm; FIG. 18; read-out: IC50 for Set9
readout: IC50

Incoming: Sample CN1C(=O)[C@]23CC4=CC=C[C@H](O)[C@H]4N2C(=O)[C@@]1(CO)SS3 [gliotoxin] — what was its IC50?
Outgoing: > 100 µM

----------
- subject of test: Set9 (His-Set9, His-Set7/9) (Homo sapiens, UniProt Q8WTS6)
- protocol text: Assay for measuring histone methyltransferase activity using peptidyl MCA, inhibitor evaluation with Set9
- Assay type: biochemical
- test conditions: Example 14; Ac-ERα(299-302)-MCA; AMC fluorescence λex 390 nm/λem 460 nm; left panel; read-out: IC50 for His-Set7/9
readout: IC50

Incoming: Look up IC50 with Set9 (His-Set9, His-Set7/9) (Homo sapiens, UniProt Q8WTS6) for this compound: CN1C(=O)[C@]23CC4=CC=C[C@H](O)[C@H]4N2C(=O)[C@@]1(CO)SS3
Outgoing: > 100 µM
